Hi there, I'd appreciate the recorded apparent KD of K4 kissing-loop reporter for every entry that follows.
System: K4 kissing-loop RNA reporter;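 also: bound reporter read as fluorescence of individual clusters on recovered sequencing chips by microscopy, with normalized cluster intensities fitted with a binding model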
Assay: apparent KD of K4 kissing-loop reporter; higher = weaker reporter binding
Conditions: Eterna round: R107; input ligand: theophylline 20 uM
One number for each entry, in nM.

Known apparent KD of K4 kissing-loop reporter results, listed for orientation:
| ORDERED RESIDUES | TARGET ENTITY | RESULT NUMBER |
| --- | --- | --- |
| UAAUCCUAAUGAUAAUAAUCAAGUGGUGGACGAGGACCGGUACGGCCGCCACUCGAAAAUGCAGUGAUGUUGUAAUACGGAUAAU [Exclusion - Tryptophan A (Freestyle 3)] | K4 kissing-loop RNA reporter | 541 |
| GCCGUACGCAUGGAUACCAGUUGCGAAGUGAUGUUUCGGGCGAUCAAAGGAUCGCCAGACAACCCUUGGCAGCCAUGCGUACGGC | K4 kissing-loop RNA reporter | 769 |
| GGGUCAUGGAACGGAUAAGUGAUGUUUACCCGAGGACCGGUACGGCCGCCACUCGGUCGUUAUUUCCGACGUGCUGGUAAGACUA [theeternabot_exclusion_KL_Trp_A_10] | K4 kissing-loop RNA reporter | 348 |

Working through the 3 sequences below one at a time, give apparent KD of K4 kissing-loop reporter for each.
1. ACCACCAGCCGCACGAUACACGGGCAUUACCGAGGACCGGUACGGCCGCCACUCGCCCGCACGCUGGAUCGAGUGAUGUUCGAUC [theeternabot_sameState_KL_Trp_A_15]
2. GGCAUGGUGGCAGGAUAUCCUAAUAGAGUGAUGUUCUAGCCCUCGUAGGCGAAAGCCUACGAGGGCGGAGAAGGGCCACCAUGCC
3. UAAGAUAUGAGGGAUACCAGCCAUAAGGAAAGUGUGAUGAGUGAUGUUCUGACAAGCCAAGGCCCUUGGCAGCUUUAAUAGCAUC [whbob_SS_Theo_B_th76]

[371, 835, 218]
